Consider the following molecules and their measured GI50 readings.
test system: NCI-H23 lung; test: NCI tumour cell line growth inhibition, 48 h

{"molecule": "Cn1c(=O)c(Cc2ccccc2F)cc2cnc(NC3CCOCC3)nc21", "GI50": "> 25 µM"}
{"molecule": "Nc1ccc(-c2nc3ccc(Cc4ccc5nc(-c6ccc(N)cc6)[nH]c5c4)cc3[nH]2)cc1", "GI50": "3.83 µM"}
{"molecule": "Nc1ccn(C2CCC(CO)O2)c(=O)n1 (stereo not drawn)", "GI50": "> 1000 µM"}

###

test system: SNB-19 CNS; assay: NCI tumour cell line growth inhibition, 48 h

{"compound": "O=c1c2ccccc2c(=O)c2c1[nH]c1c(-c3ccccc3)c(-c3ccccc3)c(=O)c12", "GI50": "3.26 µM"}
{"compound": "CC(=O)N[C@H]1CSSC[C@@H](C(N)=O)NC(=O)[C@H](C(C)C)NC(=O)[C@H](C)NC(=O)[C@H](Cc2cnc[nH]2)NC1=O", "GI50": "> 100 µM"}
{"compound": "CCSc1nc(SCC)c2cn[nH]c2n1", "GI50": "46.8 µM"}
{"compound": "Nc1ccn(C2CCC(CO)O2)c(=O)n1 (stereo unspecified)", "GI50": "> 1000 µM"}
{"compound": "CC1=C[C@H]2c3c(c(O)c(O)c4oc(-c5ccccc5)cc(=O)c34)[C@H](c3cc(O)c(O)c4oc(-c5ccccc5)cc(=O)c34)[C@H]2C(C)(C)C1", "GI50": "0.557 µM"}
{"compound": "O=C(/C=C\\c1ccc(NCc2ccc(C(=O)O)cc2)cc1)CCl", "GI50": "15.3 µM"}

###

system: IGROV1 ovarian; test: NCI tumour cell line growth inhibition, 48 h
Consider the following molecules and their measured TGI readings.
experimental endpoint: TGI

{"molecule": "Cn1c2ccccc2c(=O)c2cccc(C(=O)NC(CCCN=C(N)N)C(=O)O)c21 (stereo unspecified)", "measured value": "> 100 µM"}
{"molecule": "CCC/C(Cl)=N\\OC(=O)Nc1ccc(OC(F)(F)F)cc1", "measured value": "22 µM"}
{"molecule": "O=C(CN(c1ccccc1)c1ccccc1)n1nnc2ccccc21", "measured value": "> 100 µM"}
{"molecule": "CCOC(=O)NC(=O)c1cn(CCCOC(=O)CCCCCCCCCCC(=O)OCCCn2cc(C(=O)NC(=O)OCC)c(=O)[nH]c2=O)c(=O)[nH]c1=O", "measured value": "> 100 µM"}
{"molecule": "CCCCON(OC(=O)c1ccc2ccc3cccc4ccc1c2c34)C(C)=O", "measured value": "55.2 µM"}
{"molecule": "COc1c(C(C)C)cc2c3c1OC(=O)[C@@]31CCCC(C)(C)C1CC2 (stereo partly specified)", "measured value": "> 100 µM"}
{"molecule": "Cc1nc2sc3ccccc3n2c(=O)c1N=Nc1ccc(Cl)cc1", "measured value": "> 100 µM"}
{"molecule": "CC(=O)OCC1OC(n2c3c(cc(C#N)c2=S)CCCCC3)C(OC(C)=O)C(OC(C)=O)C1OC(C)=O (stereo unspecified)", "measured value": "> 100 µM"}
{"molecule": "CC1=C(O)C(=O)C=C2C1=CC=C1[C@@]2(C)CC[C@@]2(C)[C@@H]3C[C@](C)(C(=O)O)CC[C@]3(C)CC[C@]12C", "measured value": "0.0428 µM"}
{"molecule": "O=C1NC2OC(C(O)CO)C(O)C2O1 (stereo unspecified)", "measured value": "> 100 µM"}
{"molecule": "CN(C)C(=O)[C@H](O)[C@H](Cc1ccccc1)NC(=O)c1cc2cc(Cl)ccc2[nH]1", "measured value": "69.1 µM"}
{"molecule": "Nc1ccc(S2(c3ccc(N)cc3)C=C(c3ccccc3)C(c3ccccc3)=C2)cc1", "measured value": "> 100 µM"}
{"molecule": "O=c1oc2ccc([N+](=O)[O-])cc2c(Nc2ccc3c(c2)Oc2ccccc2O3)c1[N+](=O)[O-]", "measured value": "> 100 µM"}
{"molecule": "O=C1c2ccccc2C2(c3ccc(Cl)cc3)N[C@H]3CCCC[C@@H]3N12 (stereo partly specified)", "measured value": "> 100 µM"}
{"molecule": "CCOC(=O)c1ccc(C)c(N=NN(C)C)c1", "measured value": "> 100 µM"}
{"molecule": "Cc1c(C(=O)/C=C/c2ccccc2)[n+](=O)c2ccccc2n1[O-]", "measured value": "45.2 µM"}
{"molecule": "C=CC[C@]12C=C(OC)[C@@H](O)[C@](OC)(C(c3cc(OC)c4c(c3)OCO4)[C@H]1C)[C@H]2OC(C)=O (stereo partly specified)", "measured value": "> 100 µM"}
{"molecule": "CC(=O)[C@@]1(O)CC[C@H]2[C@@H]3C[C@H](C)C4=CC(=O)C=C[C@]4(C)[C@@]3(F)[C@@H](O)C[C@@]21C", "measured value": "> 100 µM"}
{"molecule": "O=C1CC2c3ccccc3CCC2c2ccccc21 (stereo unspecified)", "measured value": "86.6 µM"}
{"molecule": "COc1ccc(C(=O)COc2ccc(/C=C3\\COc4ccc(OC)cc4C3=O)cc2)cc1", "measured value": "54.7 µM"}
{"molecule": "COc1cc2[nH]c(C(=O)c3cc(OC)c(OC)c(OC)c3)c(N)c2cc1C#CC1CC1", "measured value": "> 100 µM"}
{"molecule": "Cc1ccc(-c2nc3ccc(Cl)cc3c(=O)n2N2C(=O)CSC2c2ccccc2Cl)cc1 (stereo unspecified)", "measured value": "> 100 µM"}
{"molecule": "COc1ccc(/C=C2\\N=C(SC)NC2=O)cc1", "measured value": "> 100 µM"}
{"molecule": "C=CCOc1ccc(C2(O)c3ccccc3C3=NCCCN32)cc1 (stereo unspecified)", "measured value": "> 100 µM"}
{"molecule": "O=C1[C@@H]2C(c3ccccc3F)=NO[C@@H]2C(=O)N1c1ccc(Cc2ccc(N3C(=O)[C@H]4C(c5ccccc5F)=NO[C@H]4C3=O)cc2)cc1", "measured value": "> 100 µM"}
{"molecule": "O=c1cc(NC2CCN(CCCc3ccccc3)CC2)c2cc(Cl)ccc2o1", "measured value": "26.6 µM"}

###

system: HOP-62 NSCLC; assay: NCI tumour cell line growth inhibition, 48 h
Consider the following compounds and their measured TGI readings.

{"compound": "O=C1c2ccccc2C2(c3ccc(Cl)cc3)N[C@H]3CCCC[C@@H]3N12 (some centres undefined)", "TGI": "> 100 µM"}
{"compound": "Cn1c(=O)c(Cc2ccccc2F)cc2cnc(NC3CCOCC3)nc21", "TGI": "> 25 µM"}
{"compound": "COc1cc(/C=C(\\C#N)c2ccccc2)cc(OC)c1", "TGI": "> 100 µM"}
{"compound": "O=C(O)/C=c1/c2ccccc2n2nc3ccccc3c12", "TGI": "> 100 µM"}

###

system: SW-620 colon; experiment: NCI tumour cell line growth inhibition, 48 h

{"compound": "CSc1ncnc2c1ncn2CCC#N", "TGI": "> 100 µM"}
{"compound": "N#Cc1c(Cl)cc(Cl)n2c1nc1ccccc12", "TGI": "> 45 µM"}
{"compound": "COc1ccc(OC)c2c(C(=O)O)c(Cc3ccccc3)ccc12", "TGI": "> 100 µM"}
{"compound": "C1C[OH+]CC[OH+]CC[OH+]CC[OH+]CC[OH+]1.[Cl-].[V]", "TGI": "> 100 µM"}
{"compound": "O=C1Nc2ccc(F)cc2/C1=C/c1ccc[nH]1", "TGI": "> 25 µM"}
{"compound": "CC(CO)(CO)NCCCCn1ccc2c1C(=O)c1c(c(O)c3ccccc3c1O)C2=O", "TGI": "29.2 µM"}
{"compound": "On1c(-c2ccccc2)nc2ccccc2c1=S", "TGI": "> 100 µM"}
{"compound": "COc1cc(/C=C(\\C#N)c2ccccc2)cc(OC)c1", "TGI": "> 100 µM"}
{"compound": "COC(=O)C1CCCN1C(=O)C(Cc1cn(S(=O)(=O)c2ccc(C)cc2)cn1)NC(=O)OC(C)(C)C (stereo not given)", "TGI": "> 100 µM"}
{"compound": "O=C(Nc1c(Cl)cc([N+](=O)[O-])cc1Cl)C(=O)C(C1OC(=O)c2ccccc21)[N+](=O)[O-] (stereo not given)", "TGI": "> 100 µM"}

###

Consider the following molecules and their measured TGI readings.
system: U251 CNS; assay: NCI tumour cell line growth inhibition, 48 h

{"molecule": "c1ccc(C2Nc3ccccc3C3OCCCC23)cc1 (stereo not given)", "test system": "U251 CNS", "TGI": "38.3 µM"}
{"molecule": "COc1ccc(OC)c2c(C(=O)O)c(Cc3ccccc3)ccc12", "test system": "U251 CNS", "TGI": "> 100 µM"}
{"molecule": "COc1cc(/C=C/c2cc(/C=C/c3ccc(O)c(OC)c3)n(C(=O)Nc3ccc(C)cc3C)n2)ccc1O", "test system": "U251 CNS", "TGI": "1.47 µM"}
{"molecule": "CC(C)NC(=O)OCCN=c1c2ccccc2ccc2ccccc12", "test system": "U251 CNS", "TGI": "> 100 µM"}
{"molecule": "Clc1ccc2c(c1)-c1c3c(nn1-c1ccccc1)-c1ccccc1SC3O2 (stereo not given)", "test system": "U251 CNS", "TGI": "> 100 µM"}
{"molecule": "Cn1c(COC(=O)Nc2ccccc2)c(COC(=O)Nc2ccccc2)c2ccc3cc(Cl)c(Cl)cc3c21", "test system": "U251 CNS", "TGI": "5.01 µM"}
{"molecule": "CN1C2CCC1CC(C)(O)C2 (stereo not given)", "test system": "U251 CNS", "TGI": "> 100 µM"}
{"molecule": "O=C(O)/C=c1/c2ccccc2n2nc3ccccc3c12", "test system": "U251 CNS", "TGI": "> 100 µM"}
{"molecule": "CC1=CC(C/C(C)=C/COc2ccc3ccc(=O)oc3c2)OC1=O (stereo not given)", "test system": "U251 CNS", "TGI": "> 100 µM"}
{"molecule": "O=C(/C=C\\c1ccc(NCc2ccc(C(=O)O)cc2)cc1)CCl", "test system": "U251 CNS", "TGI": "27 µM"}
